target: Alpha-1A adrenergic receptor (Homo sapiens); assay type: functional, cell-based; further: assay procedure not described here
Sequence (P35348 whole entry): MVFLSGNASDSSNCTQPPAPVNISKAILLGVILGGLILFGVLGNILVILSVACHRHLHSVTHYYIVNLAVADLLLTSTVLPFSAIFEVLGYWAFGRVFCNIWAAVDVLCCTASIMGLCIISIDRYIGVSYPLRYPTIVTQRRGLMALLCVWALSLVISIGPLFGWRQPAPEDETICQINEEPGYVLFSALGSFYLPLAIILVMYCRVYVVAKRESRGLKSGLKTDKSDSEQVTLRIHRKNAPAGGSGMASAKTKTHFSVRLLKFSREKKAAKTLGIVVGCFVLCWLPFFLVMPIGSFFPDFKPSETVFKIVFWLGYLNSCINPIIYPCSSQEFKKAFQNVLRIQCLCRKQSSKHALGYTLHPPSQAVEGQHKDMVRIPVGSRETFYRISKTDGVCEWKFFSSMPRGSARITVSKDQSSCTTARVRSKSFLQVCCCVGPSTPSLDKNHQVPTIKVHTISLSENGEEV
AC50 values by entry

Enquiry: Lab note: need AC50 with Alpha-1A adrenergic receptor (Homo sapiens) for entry O=C(O)[C@H]1/C(=C/CO)O[C@@H]2CC(=O)N21 , please look it up.
Return: > 30 µM

Enquiry: Lab note: need AC50 with Alpha-1A adrenergic receptor (Homo sapiens) for entry O=C(O)c1ccc2nc(-c3cc(Cl)cc(Cl)c3)oc2c1 , please look it up.
Return: > 30 µM

Enquiry: Lab note: need AC50 with Alpha-1A adrenergic receptor (Homo sapiens) for entry CCCCOC(=O)C(=O)Nc1cccc(-c2nnn[nH]2)c1 , please look it up.
Return: > 30 µM

Enquiry: Lab note: need AC50 with Alpha-1A adrenergic receptor (Homo sapiens) for entry COC(=O)CCc1ccc(OCC(O)CNC(C)C)cc1 (stereo not drawn) , please look it up.
Return: > 30 µM

Enquiry: Lab note: need AC50 with Alpha-1A adrenergic receptor (Homo sapiens) for entry C[C@H](Cn1cnc2c(N)ncnc21)OCP(=O)(O)O [TENOFOVIR ANHYDROUS] , please look it up.
Return: > 30 µM

Enquiry: Lab note: need AC50 with Alpha-1A adrenergic receptor (Homo sapiens) for entry CO/N=C(\C(=O)N[C@@H]1C(=O)N2C(C(=O)[O-])=C(C[n+]3ccc(N)n3CCO)CS[C@H]12)c1csc(N)n1 , please look it up.
Return: 30 µM

* * *

For reference, AC50 measured on Sodium-dependent serotonin transporter (Homo sapiens, UniProt P31645):

Completed entries (count: 6):
| compound | AC50 |
| --- | --- |
| C[C@@H](O)[C@H]1C(=O)N2C(C(=O)O)=C(SCCN=CN)C[C@H]12 [IMIPENEM ANHYDROUS] | > 300 µM |
| Cc1ccc(O)c([C@H](CCN(C(C)C)C(C)C)c2ccccc2)c1 [TOLTERODINE] | > 10 µM |
| C[C@H](Nc1ncnc2[nH]cnc12)c1cc2cccc(Cl)c2c(=O)n1-c1ccccc1 [DUVELISIB] | > 30 µM |
| COc1ccc(-n2nc(C(N)=O)c3c2C(=O)N(c2ccc(N4CCCCC4=O)cc2)CC3)cc1 [APIXABAN] | > 30 µM |
| COc1ccc2c3c1O[C@H]1C(=O)CC[C@H]4[C@@H](C2)N(C)CC[C@]314 [HYDROCODONE] | > 10 µM |
| CO/N=C(\C(=O)N[C@@H]1C(=O)N2C(C(=O)O)=C(CSc3nc(C)c(CC(=O)O)s3)CS[C@H]12)c1csc(N)n1 [CEFODIZIME] | > 30 µM |

Proceed to the following item.
Enquiry: Lab note: need AC50 with Sodium-dependent serotonin transporter (Homo sapiens, UniProt P31645) for entry C=C(c1ccccc1OCc1cccc(Cl)c1)n1ccnc1 [CROCONAZOLE] , please look it up.
Sequence (P31645 whole entry): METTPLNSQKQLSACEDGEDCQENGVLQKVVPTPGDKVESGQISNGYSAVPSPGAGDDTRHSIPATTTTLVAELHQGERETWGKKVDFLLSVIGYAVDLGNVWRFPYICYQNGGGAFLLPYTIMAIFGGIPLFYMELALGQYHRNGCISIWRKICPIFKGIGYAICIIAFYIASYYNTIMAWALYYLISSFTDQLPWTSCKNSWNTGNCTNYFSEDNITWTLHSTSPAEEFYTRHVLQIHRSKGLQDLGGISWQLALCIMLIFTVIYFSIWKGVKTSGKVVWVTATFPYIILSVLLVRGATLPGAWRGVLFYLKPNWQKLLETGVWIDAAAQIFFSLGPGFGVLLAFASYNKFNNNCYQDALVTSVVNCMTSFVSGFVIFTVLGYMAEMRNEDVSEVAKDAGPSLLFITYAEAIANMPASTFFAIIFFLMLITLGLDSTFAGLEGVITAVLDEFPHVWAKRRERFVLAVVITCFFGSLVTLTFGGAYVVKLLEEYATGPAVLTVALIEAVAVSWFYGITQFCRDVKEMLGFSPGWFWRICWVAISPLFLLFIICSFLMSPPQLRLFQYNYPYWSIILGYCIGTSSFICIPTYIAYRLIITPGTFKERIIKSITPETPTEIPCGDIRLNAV
Return: 16.8 µM

* * *

For reference, AC50 measured on UniProtKB O43193:

Completed entries (count: 4):
| compound | assay.endpoint | observed.measurement |
| --- | --- | --- |
| CCOc1cc2ncc(C#N)c(Nc3ccc(OCc4ccccn4)c(Cl)c3)c2cc1NC(=O)/C=C/CN(C)C | AC50 | > 10 µM |
| C[C@@H](Cc1ccccc1)N(C)Cc1ccccc1 | AC50 | > 10 µM |
| CC(=O)[C@@]1(O)CC[C@H]2[C@@H]3C[C@H](C)C4=CC(=O)C=C[C@]4(C)[C@@]3(F)[C@@H](O)C[C@@]21C | AC50 | > 10 µM |
| C[C@]12CCC(=O)C=C1[C@@H]1C[C@@H]1[C@H]1[C@@H]3[C@@H]4C[C@@H]4[C@@]4(CCC(=O)O4)[C@@]3(C)CC[C@@H]12 | AC50 | > 30 µM |

Proceed to the following item.
Enquiry: Lab note: need AC50 with UniProtKB O43193 for entry CC(C)NCC(O)COc1ccc(CC(N)=O)cc1 (stereo not given) , please look it up.
Sequence (O43193 whole entry): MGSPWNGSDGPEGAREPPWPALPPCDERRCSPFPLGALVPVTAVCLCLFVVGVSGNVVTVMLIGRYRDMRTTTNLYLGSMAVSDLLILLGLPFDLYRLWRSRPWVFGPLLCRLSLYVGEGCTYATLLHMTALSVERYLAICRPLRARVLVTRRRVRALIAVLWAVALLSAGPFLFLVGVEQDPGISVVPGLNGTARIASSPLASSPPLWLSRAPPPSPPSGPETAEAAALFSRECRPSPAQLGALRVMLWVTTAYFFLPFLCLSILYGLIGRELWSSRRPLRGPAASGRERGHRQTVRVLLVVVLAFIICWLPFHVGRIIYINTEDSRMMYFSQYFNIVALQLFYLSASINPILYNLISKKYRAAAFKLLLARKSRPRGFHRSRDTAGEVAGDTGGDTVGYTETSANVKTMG
Return: > 30 µM

* * *

Target: Alpha-2A adrenergic receptor (Homo sapiens); further: assay procedure not described here
Sequence (P08913 whole entry): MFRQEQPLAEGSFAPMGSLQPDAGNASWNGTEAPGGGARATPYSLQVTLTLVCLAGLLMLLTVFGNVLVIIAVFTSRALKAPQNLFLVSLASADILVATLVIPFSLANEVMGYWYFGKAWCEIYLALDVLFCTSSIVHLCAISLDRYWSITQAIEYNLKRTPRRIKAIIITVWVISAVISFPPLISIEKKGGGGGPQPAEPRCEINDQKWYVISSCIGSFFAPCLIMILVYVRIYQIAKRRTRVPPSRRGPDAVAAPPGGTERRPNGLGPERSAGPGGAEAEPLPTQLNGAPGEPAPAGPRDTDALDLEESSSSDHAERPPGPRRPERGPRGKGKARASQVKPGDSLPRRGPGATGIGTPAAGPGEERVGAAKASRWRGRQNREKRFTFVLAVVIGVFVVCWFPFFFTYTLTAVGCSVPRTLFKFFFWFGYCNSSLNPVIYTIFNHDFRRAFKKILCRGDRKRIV
Assay type: functional, cell-based
AC50 values by entry

| compound | study.target | AC50 |
| --- | --- | --- |
| CCCCC[C@H](O)CC[C@@H]1[C@H]2Cc3cccc(OCC(=O)O)c3C[C@H]2C[C@H]1O [TREPROSTINIL] | Alpha-2A adrenergic receptor (Homo sapiens) | > 30 µM |
| Cc1ccc(O)c([C@H](CCN(C(C)C)C(C)C)c2ccccc2)c1 [TOLTERODINE] | Alpha-2A adrenergic receptor (Homo sapiens) | > 10 µM |
| CO/N=C(\C(=O)N[C@@H]1C(=O)N2C(C(=O)[O-])=C(C[n+]3ccc(N)n3CCO)CS[C@H]12)c1csc(N)n1 [CEFOSELIS] | Alpha-2A adrenergic receptor (Homo sapiens) | > 30 µM |

Enquiry: Would you mind telling me what AC50 value was observed for CCCCCCOC(=O)NC(=N)c1ccc(NCc2nc3cc(C(=O)N(CCC(=O)OCC)c4ccccn4)ccc3n2C)cc1 [DABIGATRAN ETEXILATE] ?
Return: > 30 µM

* * *

target: Alpha-2C adrenergic receptor (Homo sapiens); format: functional; further: assay procedure not described here
Sequence (P18825 whole entry): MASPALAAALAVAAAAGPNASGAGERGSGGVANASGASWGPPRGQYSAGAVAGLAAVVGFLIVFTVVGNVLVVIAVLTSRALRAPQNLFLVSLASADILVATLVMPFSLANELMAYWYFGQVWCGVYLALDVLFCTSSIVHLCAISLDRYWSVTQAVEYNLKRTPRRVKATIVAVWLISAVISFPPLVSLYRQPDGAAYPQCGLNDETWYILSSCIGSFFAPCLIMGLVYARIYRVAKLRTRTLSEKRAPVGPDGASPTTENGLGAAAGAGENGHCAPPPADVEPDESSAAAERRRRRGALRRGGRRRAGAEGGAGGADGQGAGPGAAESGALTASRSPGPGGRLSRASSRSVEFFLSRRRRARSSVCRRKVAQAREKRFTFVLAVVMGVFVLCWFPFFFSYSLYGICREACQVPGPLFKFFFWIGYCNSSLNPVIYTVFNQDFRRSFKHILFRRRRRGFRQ
assay.endpoint: AC50

Completed entries (count: 5):
| compound | AC50 |
| --- | --- |
| CCN(CC)C(C)C(=O)c1ccccc1 (centres undefined) | > 10 µM |
| CC(C)(Oc1ccc(Cl)cc1)C(=O)OCCOC(=O)c1cccnc1 [ETOFIBRATE] | > 30 µM |
| NCCCNCCSP(=O)(O)O | > 30 µM |
| CC(C)/N=c1\cc2n(-c3ccc(Cl)cc3)c3ccccc3nc-2cc1Nc1ccc(Cl)cc1 | 13 µM |
| CCCCOC(=O)c1ccc(N)cc1 | > 30 µM |

Enquiry: Lab note: need AC50 with Alpha-2C adrenergic receptor (Homo sapiens) for entry CCOC(=O)O[C@]1(C(=O)COC(=O)CC)CC[C@H]2[C@@H]3CCC4=CC(=O)C=C[C@]4(C)[C@H]3[C@@H](O)C[C@@]21C [PREDNICARBATE] , please look it up.
Return: > 10 µM

Enquiry: Lab note: need AC50 with Alpha-2C adrenergic receptor (Homo sapiens) for entry COC(=O)CCc1ccc(OCC(O)CNC(C)C)cc1 (centres undefined) , please look it up.
Return: > 30 µM

* * *

For reference, AC50 measured on Growth hormone secretagogue receptor type 1 (Homo sapiens):

Completed entries (count: 5):
| compound | AC50 |
| --- | --- |
| CC(=O)N1CCN(c2ccc(OCC3COC(Cn4ccnc4)(c4ccc(Cl)cc4Cl)O3)cc2)CC1 (stereo not drawn) | > 10 µM |
| C[C@]12CCC(=O)C=C1[C@@H]1C[C@@H]1[C@H]1[C@@H]3[C@@H]4C[C@@H]4[C@@]4(CCC(=O)O4)[C@@]3(C)CC[C@@H]12 | > 30 µM |
| CCCCOC(=O)C(=O)Nc1cccc(-c2nnn[nH]2)c1 | > 30 µM |
| CCOC(=O)C1=C(C)NC(C)=C(C(=O)OC)C1c1cccc(Cl)c1Cl (stereo not drawn) | > 30 µM |
| CS(=O)(=O)Nc1ccc([N+](=O)[O-])cc1Oc1ccccc1 [NIMESULIDE] | 30 µM |

Enquiry: Lab note: need AC50 with Growth hormone secretagogue receptor type 1 (Homo sapiens) for entry CO/N=C(\C(=O)N[C@@H]1C(=O)N2C(C(=O)O)=C(CSc3nc(C)c(CC(=O)O)s3)CS[C@H]12)c1csc(N)n1 , please look it up.
Sequence (Q92847 whole entry): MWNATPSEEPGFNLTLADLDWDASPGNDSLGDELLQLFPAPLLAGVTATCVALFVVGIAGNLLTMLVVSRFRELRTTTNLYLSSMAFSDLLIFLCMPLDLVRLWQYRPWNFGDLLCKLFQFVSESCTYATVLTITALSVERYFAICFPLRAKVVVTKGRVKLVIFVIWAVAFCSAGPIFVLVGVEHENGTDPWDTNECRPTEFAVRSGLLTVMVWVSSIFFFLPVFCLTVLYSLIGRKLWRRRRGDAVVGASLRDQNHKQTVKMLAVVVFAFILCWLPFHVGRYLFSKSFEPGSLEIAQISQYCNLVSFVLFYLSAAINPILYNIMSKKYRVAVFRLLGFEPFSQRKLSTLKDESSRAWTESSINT
Return: > 30 µM

Enquiry: Lab note: need AC50 with Growth hormone secretagogue receptor type 1 (Homo sapiens) for entry CCCCCCOC(=O)NC(=N)c1ccc(NCc2nc3cc(C(=O)N(CCC(=O)OCC)c4ccccn4)ccc3n2C)cc1 [DABIGATRAN ETEXILATE] , please look it up.
Return: > 30 µM

Enquiry: Lab note: need AC50 with Growth hormone secretagogue receptor type 1 (Homo sapiens) for entry CCC1(c2ccccc2)C(=O)NCNC1=O , please look it up.
Return: > 10 µM

Enquiry: Lab note: need AC50 with Growth hormone secretagogue receptor type 1 (Homo sapiens) for entry CO/N=C(\C(=O)N[C@@H]1C(=O)N2C(C(=O)[O-])=C(C[n+]3ccc(N)n3CCO)CS[C@H]12)c1csc(N)n1 , please look it up.
Return: > 30 µM

Enquiry: Lab note: need AC50 with Growth hormone secretagogue receptor type 1 (Homo sapiens) for entry CN(C)CCOC(c1ccc(Cl)cc1)c1ccccn1 (stereo not drawn) , please look it up.
Return: > 30 µM

Enquiry: Lab note: need AC50 with Growth hormone secretagogue receptor type 1 (Homo sapiens) for entry CCc1ccc(C(=O)C(C)CN2CCCCC2)cc1 (stereo not drawn) , please look it up.
Return: > 30 µM

Enquiry: Lab note: need AC50 with Growth hormone secretagogue receptor type 1 (Homo sapiens) for entry C[C@]12CCC(=O)C=C1C=C[C@@H]1[C@@H]2CC[C@@]2(C)[C@H]1CC[C@@]21CCC(=O)O1 , please look it up.
Return: > 30 µM

Enquiry: Lab note: need AC50 with Growth hormone secretagogue receptor type 1 (Homo sapiens) for entry C[C@]12C=CC(=O)C=C1CC[C@@H]1[C@@H]2[C@@H](O)C[C@@]2(C)[C@H]1CC[C@]2(O)C(=O)CO , please look it up.
Return: > 30 µM

Enquiry: Lab note: need AC50 with Growth hormone secretagogue receptor type 1 (Homo sapiens) for entry CCC(=O)[C@@]1(C)[C@H](C)C[C@H]2[C@@H]3CCC4=CC(=O)C=C[C@]4(C)[C@H]3[C@@H](O)C[C@@]21C [RIMEXOLONE] , please look it up.
Return: > 10 µM

Enquiry: Lab note: need AC50 with Growth hormone secretagogue receptor type 1 (Homo sapiens) for entry CC1(C)O[C@@H]2C[C@H]3[C@@H]4CCC5=CC(=O)C=C[C@]5(C)[C@@]4(F)[C@@H](O)C[C@]3(C)[C@]2(C(=O)CO)O1 [TRIAMCINOLONE ACETONIDE] , please look it up.
Return: > 30 µM

Enquiry: Lab note: need AC50 with Growth hormone secretagogue receptor type 1 (Homo sapiens) for entry O=C(O)[C@H]1/C(=C/CO)O[C@@H]2CC(=O)N21 , please look it up.
Return: > 30 µM

Enquiry: Lab note: need AC50 with Growth hormone secretagogue receptor type 1 (Homo sapiens) for entry Oc1cc(Cl)ccc1Oc1ccc(Cl)cc1Cl , please look it up.
Return: > 30 µM

Enquiry: Lab note: need AC50 with Growth hormone secretagogue receptor type 1 (Homo sapiens) for entry C[C@]12C=CC(=O)C=C1C(Cl)=C[C@@H]1[C@@H]2[C@@H](O)C[C@@]2(C)[C@H]1CC[C@]2(O)C(=O)CO , please look it up.
Return: > 30 µM

Enquiry: Lab note: need AC50 with Growth hormone secretagogue receptor type 1 (Homo sapiens) for entry CC(C)/N=c1\cc2n(-c3ccc(Cl)cc3)c3ccccc3nc-2cc1Nc1ccc(Cl)cc1 , please look it up.
Return: 0.92 µM

Enquiry: Lab note: need AC50 with Growth hormone secretagogue receptor type 1 (Homo sapiens) for entry CCC1(CC)C(=O)NC(=O)N(C)C1=O , please look it up.
Return: > 10 µM

Enquiry: Lab note: need AC50 with Growth hormone secretagogue receptor type 1 (Homo sapiens) for entry NCCCCCC(=O)O , please look it up.
Return: > 10 µM

Enquiry: Lab note: need AC50 with Growth hormone secretagogue receptor type 1 (Homo sapiens) for entry CCCCC[C@H](O)CC[C@@H]1[C@H]2Cc3cccc(OCC(=O)O)c3C[C@H]2C[C@H]1O , please look it up.
Return: > 30 µM

Enquiry: Lab note: need AC50 with Growth hormone secretagogue receptor type 1 (Homo sapiens) for entry O=C1[C@@H]2[C@H]3CC[C@H](C3)[C@@H]2C(=O)N1C[C@@H]1CCCC[C@H]1CN1CCN(c2nsc3ccccc23)CC1 , please look it up.
Return: > 30 µM
